The following compounds are shown together with reported melting point values.

Dear colleague, I am looking for the recorded melting point of the following compound: `Nc1nc2ccc(S(=O)(=O)n3c(CCCC(=O)O)cc4cc(Cl)ccc43)cc2o1`
220 °C

Now give it for `O=C(O)c1nc(Sc2ccccc2)ccc1Sc1ccccc1` too.
131 to 132 °C

Now give it for `Cc1cc2ncc(-c3ccsc3)nc2cc1C` too.
142 to 144 °C

Now give it for CC(Br)C(Br)C(=O)NC(=O)Nc1ccc(Cl)c(Cl)c1 (configuration not stated) too.
196 to 197 °C

Now give it for `CC(C)(C)n1nnc(-c2ccccc2-c2cccc3ccccc23)n1` too.
83 to 85 °C

Now give it for `CCCSc1csc(C(=O)O)c1S(=O)(=O)NC(C)(C)C` too.
123 to 126 °C

Now give it for `COC(=O)COc1nc(N)nc(-c2ccccc2)c1-c1ccc(=O)n(C(C)C)n1` too.
150 to 152 °C

Now give it for CN1C(=O)C(NC(=O)NC23CC4CC(CC(C4)C2)C3)N=C(c2ccccc2)c2ccccc21 (configuration not stated) too.
264 to 265 °C

Now give it for `O=c1[nH]c2sccc2c(=O)n1CCN1CCC(=C(c2ccc(F)cc2)c2ccc(F)cc2)CC1` too.
205 to 207 °C

Now give it for `Cc1ccc(NC(=O)c2cccc(C(F)(F)F)c2)cc1NC(=O)N(C)c1cc(Nc2ccc(N3CCN(C)CC3)cc2)ncn1` too.
190 to 191 °C

Now give it for `COCCOc1c(S(C)(=O)=O)ccc(C(=O)O)c1Cl` too.
89 to 92 °C

Now give it for `Cc1noc(NS(=O)(=O)c2cc(F)ccc2F)c1Br` too.
123 to 125 °C

###

The following molecules are shown together with reported melting point values.

O=C(Cc1ccccn1)Nc1ccc(CCCc2ccccc2OCc2ccccc2)cc1	61 to 62 °C

Dear colleague, I am looking for the recorded melting point of the following molecule: `COCOc1ccc(-c2ncc3ccc(-c4csc(CN5CCOCC5)c4)nc3n2)cc1`
> 268 °C

Now give it for `CCOC(=O)C1CCN(C(=O)c2ccc(/C=C/C(=O)O)cc2)CC1` too.
165 °C

Now give it for CC1CC(=O)NN=C1c1ccc(NCCCN)c([N+](=O)[O-])c1 (stereo not drawn) too.
154 to 156 °C

Now give it for `CCOc1cc(Cc2cnc(N)nc2N)cc2c1OC(C)(C)C=C2Cl` too.
197 to 199 °C

Now give it for `O=C1C(=Cc2ccccc2)SC(=S)N1N=c1sc2ccccc2s1` too.
288 to 289 °C

Now give it for CNC(=O)NNC(=S)N1N=C(c2ccc([N+](=O)[O-])cc2)c2cc3c(cc2CC1C)OCO3 (stereo not drawn) too.
200 °C

Now give it for COc1cccc2c1OC(CN1CC=C(c3c[nH]c4ncccc34)CC1)CO2 (stereo not drawn) too.
207 to 210 °C

Now give it for `COC(=O)c1cn(C2CC2)c2cc(F)c(F)cc2c1=O` too.
223 to 224 °C

Now give it for `COCOc1c(-c2ccccc2)sc2cnccc12` too.
55 to 56 °C

Now give it for `COC(=O)COc1ccc(C(=O)CN2CCN(c3ccncc3)CC2=O)cc1` too.
164 to 165 °C

Now give it for `O=C(NC(=O)c1c(F)cccc1F)Nc1cc(Cl)c(Oc2ccc(S(=O)(=O)c3ccc(Cl)cc3)cc2)c(Cl)c1` too.
207 to 209 °C

Now give it for COc1cccc2c(CCCCNC3COc4c(F)ccc(C(N)=O)c4C3)coc12 (stereo not drawn) too.
138 to 141 °C

Now give it for COc1ccc(C2=CCN(CCC(O)c3ccc(C#N)cc3)CC2)cc1 (stereo not drawn) too.
144 to 145 °C

Now give it for Cc1cn(C2CC(O[Si](c3ccccc3)(c3ccccc3)C(C)(C)C)C(CI)O2)c(=O)[nH]c1=O (stereo not drawn) too.
142 °C

Now give it for `CC(C)c1ccccc1N1C(=O)CS/C1=N\C(=O)Nc1ccc(-c2nnc(-c3ccc(OC(F)(F)C(F)(F)F)cc3)o2)cc1` too.
244 to 247 °C

Now give it for `Cc1csc(NC(=S)Nc2cc(Cl)ccc2C)n1` too.
188 °C

Now give it for CCCCCCCCCC(O)Cc1ccc(O)c(O)c1 (stereo not drawn) too.
56 to 58 °C

###

The following compounds are shown together with reported melting point values.

CCOC(=O)c1cnn(-c2ccc(OC(F)(F)F)cc2)c1	114 to 116 °C
CCOC(=O)C1=C(COCc2cccnc2)NC(COCc2cccnc2)=C(C(=O)OCC)C1c1ccccc1[N+](=O)[O-]	142 to 145 °C
O=C1C(=Cn2ccnc2)C(c2ccccc2)Oc2ccccc21 (stereo not drawn)	129 to 131 °C
CCCn1c(=O)c2[nH]c(/C=C/c3ccc(OC)c(C)c3OC)nc2n(CCC)c1=O	255 to 256 °C
Nc1ccc(CO)c(Nc2nccc(-c3cccnc3)n2)c1	213 to 215 °C

Here's the next entry for you.
Dear colleague, I am looking for the recorded melting point of the following compound: `CC(=O)N1CC(Oc2c(C)cccc2C)C1`
40 to 42.5 °C

###

The following compounds are shown together with reported melting point values.

COC(=O)c1cc(C(=O)NCC(N)=O)c2cc(Cc3ccc(F)cc3)cnc2c1O	247 to 248 °C
CCOC(=O)c1sc(Oc2ccc(F)cc2)c2c1CCc1cnn(C)c1-2	94 to 95 °C
O=c1[nH]c(-c2cccnc2O)nc2ccccc12	190 to 192 °C
CS(=O)c1ccccc1-c1cc2[nH]c3ccc(O)cc3c2c2c1C(=O)NC2=O (centres undefined)	321 to 323 °C
Cc1cccc(C(=O)Nc2ccc(N3CCN(Cc4ccccc4)CC3)nc2)c1-c1ccc(C(C)C)cc1	138 to 140 °C

Dear colleague, I am looking for the recorded melting point of the following compound: `N#Cc1cccc2c1ccn2-c1ncc(C(F)(F)F)cc1Cl`
109 to 111 °C

Now give it for `CN(C)C(=O)c1cc2n(n1)-c1ccc(Cl)cc1C(c1ccccc1)=NC2` too.
176 to 178 °C

###

parameter: melting point

Dear colleague, I am looking for the recorded melting point of the following compound: `Nc1ccc2c(c1)C(=O)N(CCO)CCO2`
138 °C

Now give it for `CCOC(=O)c1cnn(-c2cc(C(=O)Nc3cc(C(C)(C)C)cc(NS(C)(=O)=O)c3OC)ccc2C)c1` too.
125 to 130 °C

Now give it for COC(=O)C1=C(C)N=C(OC)N(C(=O)Oc2ccc([N+](=O)[O-])cc2)C1c1ccc(F)c(F)c1 (stereo not given) too.
172 to 174 °C

Now give it for `COc1ccc(C(=O)Nc2ccccc2)cc1NCc1ccc([N+](=O)[O-])c(O)c1` too.
140 to 143 °C

Now give it for O=C1N(Cc2ccc(Cl)s2)c2cccc(Br)c2C12COc1cc3c(cc12)OCO3 (stereo not given) too.
85 to 87 °C

###

parameter: melting point

CC(=Cc1ccc(C(C)C)cc1)c1ccc2c(c1)C(C)(C)CCC2(C)C	86 to 87 °C

Dear colleague, I am looking for the recorded melting point of the following compound: `CNn1c(N(C)C)n[nH]c1=O`
129 °C

Now give it for O=C(O)c1ccc(CNC(=O)C2Cc3ccccc3N2S(=O)(=O)c2ccc(-c3ccc(F)cc3Cl)cc2)cc1 (stereo not drawn) too.
111 to 124 °C

Now give it for CCCN1CCCC1CNS(=O)(=O)c1ccc(Nc2ccnc3cc(Cl)ccc23)cc1 (stereo not drawn) too.
192 to 194 °C

###

parameter: melting point

Use these answered entries as a reference point.
CCOC(=O)c1cnoc1-c1ccc2c(c1)OCO2	73 to 74 °C
O=C(O)CN1C(=O)C(=Cc2cc(Cl)ccc2O)SC1=S	243 to 247 °C
CCCOC(=O)c1cccc(CCN(C)CCCC(C#N)(c2ccc(OC)c(OC)c2)C(C)C)c1 (centres undefined)	110 to 114 °C

Here's the next entry for you.
Dear colleague, I am looking for the recorded melting point of the following molecule: `O=S(=O)(F)c1ccc(OCc2ccccc2)nn1`
85 to 86 °C

###

The following compounds are shown together with reported melting point values.

Dear colleague, I am looking for the recorded melting point of the following compound: `C#CCOC(=O)[C@H](Cc1c[nH]cn1)NC(=O)C(Cc1cccc2ccccc12)Cc1cccc2ccccc12`
187 to 189 °C

Now give it for COc1ccc(C(=O)Nc2c(Cl)cncc2Cl)c2c1OC(C)C2C(=O)C1NCCc2ccccc21 (stereo not drawn) too.
211 to 213 °C

Now give it for CC#CC1(C2CC2)OC(=O)Nc2ccc(-c3cccc(Cl)c3)cc21 (stereo not drawn) too.
178 to 179 °C
